Reported IC50 values are given for each entry in this list.
Target: beta-catenin/TCF4 engagement (Homo sapiens)
Construct: expressed in transfected cells; host or cells: HEK293
Sequence (P35222 1-781): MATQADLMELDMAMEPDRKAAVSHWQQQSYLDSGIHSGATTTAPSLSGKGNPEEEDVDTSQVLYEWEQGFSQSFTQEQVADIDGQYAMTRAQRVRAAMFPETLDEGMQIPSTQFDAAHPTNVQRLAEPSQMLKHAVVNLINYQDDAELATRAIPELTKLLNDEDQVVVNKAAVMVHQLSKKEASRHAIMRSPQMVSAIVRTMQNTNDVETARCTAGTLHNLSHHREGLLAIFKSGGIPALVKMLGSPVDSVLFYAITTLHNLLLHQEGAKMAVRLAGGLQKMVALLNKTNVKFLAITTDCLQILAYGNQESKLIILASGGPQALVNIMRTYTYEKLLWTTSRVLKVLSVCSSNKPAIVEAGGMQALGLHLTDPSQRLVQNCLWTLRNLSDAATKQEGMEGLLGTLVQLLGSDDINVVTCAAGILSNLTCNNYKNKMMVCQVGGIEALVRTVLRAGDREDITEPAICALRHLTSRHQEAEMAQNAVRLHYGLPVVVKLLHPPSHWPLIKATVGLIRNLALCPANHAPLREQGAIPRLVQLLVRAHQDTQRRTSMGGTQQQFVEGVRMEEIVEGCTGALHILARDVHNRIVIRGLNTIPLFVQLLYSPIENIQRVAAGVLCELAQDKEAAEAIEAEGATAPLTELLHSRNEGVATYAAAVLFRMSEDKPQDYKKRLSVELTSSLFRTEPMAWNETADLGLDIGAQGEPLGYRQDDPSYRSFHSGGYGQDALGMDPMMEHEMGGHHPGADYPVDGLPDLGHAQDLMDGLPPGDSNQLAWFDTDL
Assay: Nano-BRET target engagement assay (B-cat-Halo & TCF4-Luc in HEK293 cells)
Type: cell-based
Settings: absolute IC50; read-out: NanoBRET Abs IC50
Could you give me the number in µM? Just the number is fine.

CC[C@@H]1NC(=O)[C@H](Cc2ccccc2)NC(=O)[C@H](C)NC(=O)C(C)(C)NC(=O)[C@H](Cc2cccc(C(=O)O)c2)NC(=O)[C@H](CC(=O)O)NC(=O)C2(CCCC=CCCCOC(=O)N3CC[C@@](C(=O)N[C@@H](Cc4ccsc4)C(=O)N[C@@H](Cc4csc5ccccc45)C(=O)N[C@@H](CCC(=O)N4CCC(N5CCCCC5)CC4)C(N)=O)(C3)NC1=O)CCCC=CC[C@]1(CCCN1C(C)=O)C(=O)N[C@@H](CC(=O)O)C(=O)N[C@@H](CC(C)(C)C)C(=O)N2 (some centres unmarked)	19.3
CC(=O)N1CCC[C@]12CC=CCCCC1(CCCC=CCCCOC(=O)N3CC[C@@](C(=O)N[C@@H](Cc4ccccc4C(N)=O)C(=O)N[C@@H](Cc4csc5ccccc45)C(=O)N[C@@H](CCC(N)=O)C(N)=O)(C3)NC(=O)[C@H](Cc3ccccc3)NC(=O)[C@H](Cc3ccccc3)NC(=O)[C@H](C)NC(=O)[C@H](C)NC(=O)[C@H](CC(=O)O)NC(=O)[C@H](CC(=O)O)NC1=O)NC(=O)[C@H](CC(C)(C)C)NC(=O)[C@H](CC(=O)O)NC2=O (some centres unmarked)	6.8
CC(=O)N1CCC[C@]12CC=CCCCC1(CCCC=CCCCCCC[C@@](C)(C(=O)N[C@@H](Cc3ccccc3Cl)C(=O)N[C@@H](Cc3csc4ccccc34)C(=O)N[C@@H](CCO)C(N)=O)NC(=O)[C@H](CO)NC(=O)[C@H](Cc3ccccc3)NC(=O)[C@H](C)NC(=O)[C@H](C)NC(=O)[C@H](CN(CC(=O)O)CC(F)(F)F)NC(=O)[C@H](CC(=O)O)NC1=O)NC(=O)[C@H](CC(C)(C)C)NC(=O)[C@H](CC(=O)O)NC2=O (single isomer, unassigned)	26.3

From here, focus on the item given below.
# input Give the reported value of IC50 for this record: CC(=O)N1CCC[C@]12CC=CCCCC1(CCCC=CCCCOC(=O)N3CC[C@@](C(=O)N[C@@H](Cc4ccsc4)C(=O)N[C@@H](Cc4csc5ccccc45)C(=O)N[C@@H](Cc4ccccc4)C(N)=O)(C3)NC(=O)[C@H](CC(C)C)NC(=O)[C@H](Cc3ccccc3)NC(=O)[C@H](C)NC(=O)[C@H](C)NC(=O)[C@H](CN(CC(=O)O)CC(F)(F)F)NC(=O)[C@H](CC(=O)O)NC1=O)NC(=O)[C@H](CC(C)(C)C)NC(=O)[C@H](CC(=O)O)NC2=O (some centres unmarked)
# output 23.7
